- target_desc: T1, compound 1 as a partial peptide of FGF-8 with the C terminal labeled with biotin (human, C terminal labeled with biotin)
- T1 construct: Captured on Sensor Chip SA (35 RU) for BIAcore 2000; also called compound 1 labeled with biotin; FGF-8 peptide
- T1 peptide: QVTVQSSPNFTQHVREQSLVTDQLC
- assay_name: BIAcore 2000, biotin-labeled compound 1 on SA chip (35 RU), antibody 16.7 µg/mL; dissociation hardly observed
reported_metric: binding result

{"binder": "anti-FGF-8 neutralizing CDR-grafted antibody HV0LV3-2/CHO (antibody, V domains shown, HV.0 + LV.3-2; CHO/DG44 cell-derived) VH: QVQLVQSGAEVKKPGASVKVSCKASGYTFTDYYLNWVRQAPGQGLEWMGEIDPGSDSIYYNENLEGRVTITADTSTSTAYMELSSLRSEDTAVYYCARYGYSRYDVRFVYWGQGTLVTVSS VL: DIVMTQSPLSLPVSLGEPASISCRSSQSLVHSNGRTYLEWYLQKPGQSPQLLIYKVSNRISGVPDRFSGSGSGTDFTLKISRVEAEDVGVYFCFQGSHVPYTFGQGTKVEIK", "observed_value": "binds"}
{"binder": "anti-FGF-8 neutralizing CDR-grafted antibody HV0LV4-1/CHO (antibody, V domains shown, HV.0 + LV.4-1; CHO/DG44 cell-derived) VH: QVQLVQSGAEVKKPGASVKVSCKASGYTFTDYYLNWVRQAPGQGLEWMGEIDPGSDSIYYNENLEGRVTITADTSTSTAYMELSSLRSEDTAVYYCARYGYSRYDVRFVYWGQGTLVTVSS VL: DVVMTQSPLSLPVTPGEPASISCRSSQSLVHSNGRTYLEWYLQKPGQSPKVLIYKVSNRISGVPDRFSGSGSGTDFTLKISRVEAEDVGVYFCFQGSHVPYTFGQGTKVEIK", "observed_value": "binds"}
{"binder": "anti-FGF-8 neutralizing CDR-grafted antibody HV0LV0/CHO (antibody, V domains shown, HV.0 + LV.0; CHO/DG44 cell-derived) VH: QVQLVQSGAEVKKPGASVKVSCKASGYTFTDYYLNWVRQAPGQGLEWMGEIDPGSDSIYYNENLEGRVTITADTSTSTAYMELSSLRSEDTAVYYCARYGYSRYDVRFVYWGQGTLVTVSS VL: DIVMTQSPLSLPVTPGEPASISCRSSQSLVHSNGRTYLEWYLQKPGQSPQLLIYKVSNRISGVPDRFSGSGSGTDFTLKISRVEAEDVGVYYCFQGSHVPYTFGQGTKVEIK", "observed_value": "binds"}
